Biological target: BTK WT (Homo sapiens (Human), UniProt Q06187)
Sequence (Q06187 whole entry): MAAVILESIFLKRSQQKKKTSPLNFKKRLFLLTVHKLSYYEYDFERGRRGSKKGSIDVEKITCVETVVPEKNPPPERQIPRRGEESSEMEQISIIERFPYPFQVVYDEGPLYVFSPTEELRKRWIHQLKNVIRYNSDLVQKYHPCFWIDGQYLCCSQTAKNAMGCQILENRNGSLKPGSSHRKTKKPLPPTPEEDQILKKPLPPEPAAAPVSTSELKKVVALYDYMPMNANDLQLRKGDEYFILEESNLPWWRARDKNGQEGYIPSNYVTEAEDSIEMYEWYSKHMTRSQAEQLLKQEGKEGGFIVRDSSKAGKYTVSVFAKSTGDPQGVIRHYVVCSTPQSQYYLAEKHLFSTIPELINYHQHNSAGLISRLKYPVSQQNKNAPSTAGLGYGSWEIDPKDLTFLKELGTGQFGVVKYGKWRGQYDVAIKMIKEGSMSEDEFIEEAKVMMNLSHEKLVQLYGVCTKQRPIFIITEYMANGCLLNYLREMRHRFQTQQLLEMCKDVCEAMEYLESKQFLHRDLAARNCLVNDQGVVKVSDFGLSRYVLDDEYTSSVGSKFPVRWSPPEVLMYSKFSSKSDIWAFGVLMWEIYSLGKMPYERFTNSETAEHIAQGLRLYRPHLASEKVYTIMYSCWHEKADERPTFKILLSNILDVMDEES
Collected log10 IC50 values appear next to each entry.
Quick note: numbers are log10 of IC50, with nM as the unit.

> print(dat)
                            compound.string  observed
1  C=CC(=O)Nc1cccc(Nc2nc3c(c(-c4cnn(C)c4)n2)C(=O)NC3)c1      1.68
2  C=CC(=O)Nc1cccc(Nc2nc3c(c(Nc4cnn(C5CC5)c4)n2)C(=O)NC3)c1      1.80
3  C=CC(=O)Nc1cccc(Nc2cc3c(c(Nc4ccc(OCCOC)cc4)n2)C(=O)NC3)c1      1.83
4  C=CC(=O)N(CC)c1cccc(Nc2nc3c(c(Nc4ccc(N5CCN(C6COC6)C[C@@H]5C)cc4)n2)C(=O)NC3)c1      1.64
5  C=CC(=O)Nc1cccc(Nc2nc3c(c(Nc4ccc(OCCOC)cc4)n2)C(=O)NC3)c1      1.40
6  C=CC(=O)Nc1cccc(Nc2nc(Nc3ccc(OCCOC)cc3)c3c(c2F)C(C)(C)NC3=O)c1      2.19
7  C=CC(=O)Nc1cccc(Nc2nc3c(c(Nc4cnn(C5CCOCC5)c4)n2)C(=O)NC3)c1      1.28

// moving on: another record for log10 IC50
Return log10 IC50 for the following molecule: "C=CC(=O)Nc1cccc(Nc2nc3c(c(Oc4ccc(OCCOC)cc4)n2)C(=O)NC3)c1" 3.13

---

Collected pIC50 values appear next to each entry.
Target: βBTK Y223 (Ramos cells) (Homo sapiens (Human))
Assay: HTRF method for detecting intracellular βBTK Y223 phosphorylation
Conditions: 1 hour compound incubation, sodium pervanadate stimulation
To interpret pIC50, take it as minus log10 of a concentration measured in moles per litre.

Example entries and their recorded answers appear below.
> print(dat)
                                   compound  reported.endpoint  observed
1  C=CC(=O)Nc1cccc(Nc2nc(Nc3ccc(N4CCN(CC(C)O)CC4)cc3)c3c(c2F)CNC3=O)c1 (centres unmarked) [Compound G-4]              pIC50      8.22
2  C=CC(=O)Nc1cccc(Nc2nc3c(c(-c4cnn(C)c4)n2)C(=O)NC3)c1 [Compound G-11]              pIC50      8.40
3  C=CC(=O)N(CC)c1cccc(Nc2nc3c(c(Nc4ccc(N5CCN(C6COC6)C[C@@H]5C)cc4)n2)C(=O)NC3)c1 [Compound G-16]              pIC50      7.21
4  C=CC(=O)Nc1cccc(Nc2nc3c(c(Nc4ccccc4)n2)C(=O)NC3)c1 [Compound G-6]              pIC50      7.70

Return pIC50 for the following compound: C=CC(=O)Nc1cccc(Nc2nc3c(c(Nc4cnn(C5CC5)c4)n2)C(=O)NC3)c1 [Compound G-13] 7.09

---

Target: UniProtKB P00533
Sequence (P00533 25-1210): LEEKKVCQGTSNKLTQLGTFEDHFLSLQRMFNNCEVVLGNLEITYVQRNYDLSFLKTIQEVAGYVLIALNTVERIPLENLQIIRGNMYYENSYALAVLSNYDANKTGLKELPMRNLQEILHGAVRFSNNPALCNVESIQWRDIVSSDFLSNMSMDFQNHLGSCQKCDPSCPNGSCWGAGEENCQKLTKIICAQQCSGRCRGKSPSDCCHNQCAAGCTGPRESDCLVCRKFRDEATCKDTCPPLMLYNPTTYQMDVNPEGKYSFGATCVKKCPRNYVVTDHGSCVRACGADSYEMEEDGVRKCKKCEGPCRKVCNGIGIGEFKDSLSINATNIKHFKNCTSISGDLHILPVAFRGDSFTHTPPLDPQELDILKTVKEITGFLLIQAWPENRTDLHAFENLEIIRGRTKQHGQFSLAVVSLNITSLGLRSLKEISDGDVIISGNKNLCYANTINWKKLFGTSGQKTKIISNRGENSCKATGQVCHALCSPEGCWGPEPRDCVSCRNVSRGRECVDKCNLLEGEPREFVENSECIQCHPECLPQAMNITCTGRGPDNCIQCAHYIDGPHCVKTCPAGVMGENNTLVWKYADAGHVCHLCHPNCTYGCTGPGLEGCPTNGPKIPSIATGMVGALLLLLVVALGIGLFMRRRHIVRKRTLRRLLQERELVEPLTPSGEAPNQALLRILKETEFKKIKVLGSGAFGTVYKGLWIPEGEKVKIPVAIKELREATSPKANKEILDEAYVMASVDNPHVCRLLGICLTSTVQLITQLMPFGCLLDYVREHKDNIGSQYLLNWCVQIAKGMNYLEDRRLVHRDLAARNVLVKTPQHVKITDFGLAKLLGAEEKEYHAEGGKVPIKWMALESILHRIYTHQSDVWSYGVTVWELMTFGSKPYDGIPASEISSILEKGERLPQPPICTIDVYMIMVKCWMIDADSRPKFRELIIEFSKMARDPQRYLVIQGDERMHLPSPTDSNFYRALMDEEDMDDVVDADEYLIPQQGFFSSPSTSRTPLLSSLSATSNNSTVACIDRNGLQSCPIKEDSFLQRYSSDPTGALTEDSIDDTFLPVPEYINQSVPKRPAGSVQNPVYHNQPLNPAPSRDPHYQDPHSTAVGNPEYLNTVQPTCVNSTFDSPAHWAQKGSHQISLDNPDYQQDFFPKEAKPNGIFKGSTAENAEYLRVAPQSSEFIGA
Assay: Wild type EGFR kinase inhibition test (z-lyte)
Format: biochemical
Conditions: wild-type EGFR kinase Invitrogen PV3872, Tyr04 substrate, read-out: EGFR WT IC50
reported-endpoint: pIC50
To interpret pIC50, take it as minus log10 of a concentration measured in moles per litre.

Example entries and their recorded answers appear below.
> print(dat)
                                   molecule  observed
1  C=CC(=O)Nc1cccc(Nc2nc3c(c(Nc4cnn(CCOC)c4)n2)C(=O)NC3)c1      5.57
2  C=CC(=O)Nc1cccc(Nc2nc3c(c(Nc4cnn(C5CCOCC5)c4)n2)C(=O)NC3)c1      5.16

Return pIC50 for the following molecule: "C=CC(=O)Nc1cccc(Nc2nc3c(c(Oc4ccc(OCCOC)cc4)n2)C(=O)NC3)c1" 5.81

Return pIC50 for the following molecule: "C=CC(=O)Nc1cccc(Nc2nc3c(c(Nc4ccccc4)n2)C(=O)NC3)c1" 5.52

Return pIC50 for the following molecule: "C=CC(=O)Nc1cccc(Nc2nc3c(c(Nc4ccc(OCCOC)cc4)n2)C(=O)NC3)c1" 5.33

Return pIC50 for the following molecule: "C=CC(=O)N(CC)c1cccc(Nc2nc3c(c(Nc4ccc(N5CCN(C6COC6)C[C@@H]5C)cc4)n2)C(=O)NC3)c1" 5.25

Return pIC50 for the following molecule: C=CC(=O)Nc1cccc(Nc2nc(Nc3ccc(OCCOC)cc3)c3c(c2F)C(C)NC3=O)c1 (stereo not shown) 5.03

Return pIC50 for the following molecule: "C=CC(=O)Nc1cccc(Nc2nc3c(c(Nc4cnn(C)c4)n2)C(=O)NC3)c1" 5.19

Return pIC50 for the following molecule: "C=CC(=O)Nc1cccc(Nc2nc3c(c(Nc4cnn(C5CC5)c4)n2)C(=O)NC3)c1" 5.51

Return pIC50 for the following molecule: "C=CC(=O)Nc1cccc(Nc2nc3c(c(Nc4ccc(N5CCOCC5)cc4)n2)C(=O)NC3)c1" 5.37

Return pIC50 for the following molecule: "C=CC(=O)Nc1cccc(Nc2nc3c(c(Nc4cnn(CC(C)(C)O)c4)n2)C(=O)NC3)c1" 5.30

Return pIC50 for the following molecule: C=CC(=O)Nc1cccc(Nc2nc(Nc3ccc(N4CCN(CC(C)O)CC4)cc3)c3c(c2F)CNC3=O)c1 (stereo not shown) 5.52

---

Biological target: βBTK Y223 (Ramos cells) (Homo sapiens (Human), UniProt Q06187)
Assay: HTRF method for detecting intracellular βBTK Y223 phosphorylation
Conditions: 1 hour compound incubation, sodium pervanadate stimulation
reported-endpoint: IC50 (nM)
Supply the numeric figure in nM, leaving out any unit text.

> print(dat)
                                   molecule  reported.endpoint  observed
1  C=CC(=O)Nc1cccc(Nc2nc(Nc3ccc(OCCOC)cc3)c3c(c2F)CNC3=O)c1 [Compound G-3]               IC50       106
2  C=CC(=O)Nc1cccc(Nc2cc3c(c(Nc4ccc(OCCOC)cc4)n2)C(=O)NC3)c1 [Compound G-10]               IC50       164
3  C=CC(=O)Nc1cccc(Nc2nc3c(c(Nc4cnn(CCOC)c4)n2)C(=O)NC3)c1 [Compound G-14]               IC50       103
4  C=CC(=O)Nc1cccc(Nc2nc3c(c(Nc4cnn(C5CCOCC5)c4)n2)C(=O)NC3)c1 [Compound G-7]               IC50       111
5  C=CC(=O)Nc1cccc(Nc2nc3c(c(Nc4cnn(C)c4)n2)C(=O)NC3)c1 [Compound G-8]               IC50        36

Print βBTK Y223 (Ramos cells) (Homo sapiens (Human), UniProt Q06187) IC50 for C=CC(=O)Nc1cccc(Nc2nc3c(c(Nc4cnn(CC(C)(C)O)c4)n2)C(=O)NC3)c1 [Compound G-9] . 82

Print βBTK Y223 (Ramos cells) (Homo sapiens (Human), UniProt Q06187) IC50 for C=CC(=O)Nc1cccc(Nc2nc3c(c(Nc4ccc(N5CCOCC5)cc4)n2)C(=O)NC3)c1 [Compound G-15] . 36

Print βBTK Y223 (Ramos cells) (Homo sapiens (Human), UniProt Q06187) IC50 for C=CC(=O)Nc1cccc(Nc2nc3c(c(Nc4ccc(OCCOC)cc4)n2)C(=O)NC3)c1 [Compound G-2] . 43

---

Target: BTK WT (Homo sapiens (Human), UniProt Q06187)
Assay: Lantha Screening Kinase Reaction Assay
Format: biochemical
Settings: TR-FRET LanthaScreen, kinase Invitrogen PV3363, 60 min at 25° C.
reported-endpoint: IC50

> print(dat)
                                   compound                            assayed.target  reported.endpoint  observed
1  C=CC(=O)Nc1cccc(Nc2nc(Nc3ccc(N4CCN(CC(C)O)CC4)cc3)c3c(c2F)CNC3=O)c1 (centres unmarked)  BTK WT (Homo sapiens (Human), UniProt Q06187)               IC50     10 nM
2  C=CC(=O)Nc1cccc(Nc2nc(Nc3ccc(OCCOC)cc3)c3c(c2F)C(C)NC3=O)c1 (centres unmarked)  BTK WT (Homo sapiens (Human), UniProt Q06187)               IC50    141 nM
3  C=CC(=O)Nc1cccc(Nc2nc3c(c(Nc4ccc(N5CCOCC5)cc4)n2)C(=O)NC3)c1  BTK WT (Homo sapiens (Human), UniProt Q06187)               IC50     52 nM
4  C=CC(=O)Nc1cccc(Nc2nc(Nc3ccc(OCCOC)cc3)c3c(c2F)CNC3=O)c1  BTK WT (Homo sapiens (Human), UniProt Q06187)               IC50     58 nM
5  C=CC(=O)Nc1cccc(Nc2nc3c(c(Nc4cnn(C)c4)n2)C(=O)NC3)c1  BTK WT (Homo sapiens (Human), UniProt Q06187)               IC50      9 nM
6  C=CC(=O)Nc1cccc(Nc2nc3c(c(Nc4cnn(CC(C)(C)O)c4)n2)C(=O)NC3)c1  BTK WT (Homo sapiens (Human), UniProt Q06187)               IC50     55 nM

Return IC50 for the following compound: "C=CC(=O)Nc1cccc(Nc2nc3c(c(Nc4ccccc4)n2)C(=O)NC3)c1" 14 nM

Return IC50 for the following compound: "C=CC(=O)Nc1cccc(Nc2nc3c(c(Nc4cnn(CCOC)c4)n2)C(=O)NC3)c1" 59 nM
